Taken from PubChem BioAssay AID2060902.

System: 485368-065-R3-J5-PDC spheroids with HUVEC/MSC, viability
Assay: Anticancer human tumor 485368-065-R3-J5-PDC patient-derived pancreatic carcinoma cell line growth inhibition [RAS]; active = viability on the fitted dose curve at most 10% of control; inactive = the rest
Details: second compound 0.316 µM; first compound 10 µM
Labels: t = active, f = inactive

[[record]]
compound = "CC(C)NCC(C(=O)N1CCN(c2ncnc3c2C(C)CC3O)CC1)c1ccc(Cl)cc1 (stereo not given) + C=CC(=O)N1CCN(c2nc(OCC3CCCN3C)nc3c(F)c(-c4nc(N)cc(C)c4C(F)(F)F)c(Cl)cc23)C(C)C1"
label_class = "f"

[[record]]
compound = "CC(Nc1ccc2c(c1)OCCn1cc(N3C(=O)OCC3C(F)F)nc1-2)C(N)=O (stereo not given) + C=CC(=O)N1CCN(c2nc(OCC3CCCN3C)nc3c(F)c(-c4nc(N)cc(C)c4C(F)(F)F)c(Cl)cc23)C(C)C1"
label_class = "f"

[[record]]
compound = "Cc1nc(N2CCC3(CC2)COC(C)C3N)c(CO)nc1Sc1ccnc(N)c1Cl (stereo not given) + C=CC(=O)N1CCN(c2nc(OCC3CCCN3C)nc3c(F)c(-c4nc(N)cc(C)c4C(F)(F)F)c(Cl)cc23)C(C)C1"
label_class = "f"

[[record]]
compound = "NC1c2ccccc2OC12CCN(c1cnc3c(N4CCCc5ncccc54)n[nH]c3n1)CC2 (stereo not given) + C=CC(=O)N1CCN(c2nc(OCC3CCCN3C)nc3c(F)c(-c4nc(N)cc(C)c4C(F)(F)F)c(Cl)cc23)C(C)C1"
label_class = "f"

[[record]]
compound = "C[C@@H](NC(=O)c1ncnc(N)c1Cl)c1ncc(C(=O)Nc2cc(C(F)(F)F)c(Cl)cn2)s1 + C#Cc1c(F)ccc2cc(O)cc(-c3ncc4c(N5CC6CCC(C5)N6)nc(OCC56CCCN5CC(F)C6)nc4c3F)c12"
label_class = "f"

[[record]]
compound = "CC(Nc1ccc2c(c1)OCCn1cc(N3C(=O)OCC3C(F)F)nc1-2)C(N)=O (stereo not given) + C#Cc1c(F)ccc2cc(O)cc(-c3ncc4c(N5CC6CCC(C5)N6)nc(OCC56CCCN5CC(F)C6)nc4c3F)c12"
label_class = "f"

[[record]]
compound = "CC1(O)CCCC1n1c(=O)c(C(F)F)cc2cnc(NC3CCN(S(C)(=O)=O)CC3)nc21 (stereo not given) + C=CC(=O)N1CCN(c2nc(OCC3CCCN3C)nc3c(F)c(-c4nc(N)cc(C)c4C(F)(F)F)c(Cl)cc23)C(C)C1"
label_class = "f"

[[record]]
compound = "CC1(O)CCCC1n1c(=O)c(C(F)F)cc2cnc(NC3CCN(S(C)(=O)=O)CC3)nc21 (stereo not given) + C#Cc1c(F)ccc2cc(O)cc(-c3ncc4c(N5CC6CCC(C5)N6)nc(OCC56CCCN5CC(F)C6)nc4c3F)c12"
label_class = "f"

[[record]]
compound = "CC(=O)OC12COC1CC(O)C1(C)C(=O)C(O)C3=C(C)C(OC(=O)C(O)C(NC(=O)OC(C)(C)C)c4ccccc4)CC(O)(C(OC(=O)c4ccccc4)C21)C3(C)C (stereo not given) + C#Cc1c(F)ccc2cc(O)cc(-c3ncc4c(N5CC6CCC(C5)N6)nc(OCC56CCCN5CC(F)C6)nc4c3F)c12"
label_class = "f"

[[record]]
compound = "CCC(CC)c1cc(NC2CCC(N)C2)n2nccc2n1 (stereo not given) + C=CC(=O)N1CCN(c2nc(OCC3CCCN3C)nc3c(F)c(-c4nc(N)cc(C)c4C(F)(F)F)c(Cl)cc23)C(C)C1"
label_class = "t"


###

System: 485368-065-R3-J5-PDC spheroids with HUVEC/MSC, viability
Experiment: Anticancer human tumor 485368-065-R3-J5-PDC cell line growth inhibition [RAS];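 note: spheroids exposed to agents for seven days before readout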
Conditions: second compound 0.00949 µM; first compound 3.16 µM; stronger effect = lower value
QUANTITY KIND: viability, T/C (%)

[[record]]
compound = "CC(=O)OC12COC1CC(O)C1(C)C(=O)C(O)C3=C(C)C(OC(=O)C(O)C(NC(=O)OC(C)(C)C)c4ccccc4)CC(O)(C(OC(=O)c4ccccc4)C21)C3(C)C (centres undefined) + CCn1c(-c2cc(N3CCN(C)CC3)cnc2C(C)OC)c2c3cc(ccc31)-c1csc(n1)CC(NC(=O)C1CC1C)C(=O)N1CCCC(N1)C(=O)OCC(C)(C)C2"
endpoint_result = 11.4

[[record]]
compound = "CC(C)NCC(C(=O)N1CCN(c2ncnc3c2C(C)CC3O)CC1)c1ccc(Cl)cc1 (centres undefined) + CCn1c(-c2cccnc2C(C)OC)c2c3cc(ccc31)N1CCOC(CC(NC(=O)C(C(C)C)N(C)C(=O)C3(F)CCN(C(=O)C#CC(C)(C)N(C)C)CC3)C(=O)N3CCCC(N3)C(=O)OCC(C)(C)C2)C1"
endpoint_result = 76.8

[[record]]
compound = "NC1c2ccccc2OC12CCN(c1cnc3c(N4CCCc5ncccc54)n[nH]c3n1)CC2 (centres undefined) + CCn1c(-c2cccnc2C(C)OC)c2c3cc(ccc31)N1CCOC(CC(NC(=O)C(C(C)C)N(C)C(=O)C3(F)CCN(C(=O)C#CC(C)(C)N(C)C)CC3)C(=O)N3CCCC(N3)C(=O)OCC(C)(C)C2)C1"
endpoint_result = 88.9

[[record]]
compound = "CC(Nc1ccc2c(c1)OCCn1cc(N3C(=O)OCC3C(F)F)nc1-2)C(N)=O (centres undefined) + CCn1c(-c2cc(N3CCN(C)CC3)cnc2C(C)OC)c2c3cc(ccc31)-c1csc(n1)CC(NC(=O)C1CC1C)C(=O)N1CCCC(N1)C(=O)OCC(C)(C)C2"
endpoint_result = 9.37


###

Tested on: 485368-065-R3-J5-PDC spheroids with HUVEC/MSC, viability
Assay: Anticancer human tumor 485368-065-R3-J5-PDC cell line growth inhibition [RAS];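 note: spheroids exposed to agents for seven days before readout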
Conditions: second compound 0.03 µM; first compound 10 µM; stronger effect = lower value
Quick rule for you: viability, T/C under 30% gets 1, anything else gets 0.

[[record]]
compound = "CCC(CC)c1cc(NC2CCC(N)C2)n2nccc2n1 (stereo unspecified) + CCn1c(-c2cccnc2C(C)OC)c2c3cc(ccc31)N1CCOC(CC(NC(=O)C(C(C)C)N(C)C(=O)C3(F)CCN(C(=O)C#CC(C)(C)N(C)C)CC3)C(=O)N3CCCC(N3)C(=O)OCC(C)(C)C2)C1"
label_class = 1

[[record]]
compound = "Cc1nc(N2CCC3(CC2)COC(C)C3N)c(CO)nc1Sc1ccnc(N)c1Cl (stereo unspecified) + CCn1c(-c2cccnc2C(C)OC)c2c3cc(ccc31)N1CCOC(CC(NC(=O)C(C(C)C)N(C)C(=O)C3(F)CCN(C(=O)C#CC(C)(C)N(C)C)CC3)C(=O)N3CCCC(N3)C(=O)OCC(C)(C)C2)C1"
label_class = 0

[[record]]
compound = "CC1(O)CCCC1n1c(=O)c(C(F)F)cc2cnc(NC3CCN(S(C)(=O)=O)CC3)nc21 (stereo unspecified) + CCn1c(-c2cc(N3CCN(C)CC3)cnc2C(C)OC)c2c3cc(ccc31)-c1csc(n1)CC(NC(=O)C1CC1C)C(=O)N1CCCC(N1)C(=O)OCC(C)(C)C2"
label_class = 1

[[record]]
compound = "CCC(CC)c1cc(NC2CCC(N)C2)n2nccc2n1 (stereo unspecified) + CCn1c(-c2cc(N3CCN(C)CC3)cnc2C(C)OC)c2c3cc(ccc31)-c1csc(n1)CC(NC(=O)C1CC1C)C(=O)N1CCCC(N1)C(=O)OCC(C)(C)C2"
label_class = 1

[[record]]
compound = "C[C@@H](NC(=O)c1ncnc(N)c1Cl)c1ncc(C(=O)Nc2cc(C(F)(F)F)c(Cl)cn2)s1 + CCn1c(-c2cccnc2C(C)OC)c2c3cc(ccc31)N1CCOC(CC(NC(=O)C(C(C)C)N(C)C(=O)C3(F)CCN(C(=O)C#CC(C)(C)N(C)C)CC3)C(=O)N3CCCC(N3)C(=O)OCC(C)(C)C2)C1"
label_class = 0

[[record]]
compound = "CC(Nc1ccc2c(c1)OCCn1cc(N3C(=O)OCC3C(F)F)nc1-2)C(N)=O (stereo unspecified) + CCn1c(-c2cc(N3CCN(C)CC3)cnc2C(C)OC)c2c3cc(ccc31)-c1csc(n1)CC(NC(=O)C1CC1C)C(=O)N1CCCC(N1)C(=O)OCC(C)(C)C2"
label_class = 1

[[record]]
compound = "NC1c2ccccc2OC12CCN(c1cnc3c(N4CCCc5ncccc54)n[nH]c3n1)CC2 (stereo unspecified) + CCn1c(-c2cc(N3CCN(C)CC3)cnc2C(C)OC)c2c3cc(ccc31)-c1csc(n1)CC(NC(=O)C1CC1C)C(=O)N1CCCC(N1)C(=O)OCC(C)(C)C2"
label_class = 1

[[record]]
compound = "Cc1nc(N2CCC3(CC2)COC(C)C3N)c(CO)nc1Sc1ccnc(N)c1Cl (stereo unspecified) + CCn1c(-c2cc(N3CCN(C)CC3)cnc2C(C)OC)c2c3cc(ccc31)-c1csc(n1)CC(NC(=O)C1CC1C)C(=O)N1CCCC(N1)C(=O)OCC(C)(C)C2"
label_class = 1

[[record]]
compound = "CC1(O)CCCC1n1c(=O)c(C(F)F)cc2cnc(NC3CCN(S(C)(=O)=O)CC3)nc21 (stereo unspecified) + CCn1c(-c2cccnc2C(C)OC)c2c3cc(ccc31)N1CCOC(CC(NC(=O)C(C(C)C)N(C)C(=O)C3(F)CCN(C(=O)C#CC(C)(C)N(C)C)CC3)C(=O)N3CCCC(N3)C(=O)OCC(C)(C)C2)C1"
label_class = 1

[[record]]
compound = "C[C@@H](NC(=O)c1ncnc(N)c1Cl)c1ncc(C(=O)Nc2cc(C(F)(F)F)c(Cl)cn2)s1 + CCn1c(-c2cc(N3CCN(C)CC3)cnc2C(C)OC)c2c3cc(ccc31)-c1csc(n1)CC(NC(=O)C1CC1C)C(=O)N1CCCC(N1)C(=O)OCC(C)(C)C2"
label_class = 1

[[record]]
compound = "CC(=O)OC12COC1CC(O)C1(C)C(=O)C(O)C3=C(C)C(OC(=O)C(O)C(NC(=O)OC(C)(C)C)c4ccccc4)CC(O)(C(OC(=O)c4ccccc4)C21)C3(C)C (stereo unspecified) + CCn1c(-c2cccnc2C(C)OC)c2c3cc(ccc31)N1CCOC(CC(NC(=O)C(C(C)C)N(C)C(=O)C3(F)CCN(C(=O)C#CC(C)(C)N(C)C)CC3)C(=O)N3CCCC(N3)C(=O)OCC(C)(C)C2)C1"
label_class = 1

[[record]]
compound = "CC(C)NCC(C(=O)N1CCN(c2ncnc3c2C(C)CC3O)CC1)c1ccc(Cl)cc1 (stereo unspecified) + CCn1c(-c2cc(N3CCN(C)CC3)cnc2C(C)OC)c2c3cc(ccc31)-c1csc(n1)CC(NC(=O)C1CC1C)C(=O)N1CCCC(N1)C(=O)OCC(C)(C)C2"
label_class = 1

[[record]]
compound = "CC(=O)OC12COC1CC(O)C1(C)C(=O)C(O)C3=C(C)C(OC(=O)C(O)C(NC(=O)OC(C)(C)C)c4ccccc4)CC(O)(C(OC(=O)c4ccccc4)C21)C3(C)C (stereo unspecified) + CCn1c(-c2cc(N3CCN(C)CC3)cnc2C(C)OC)c2c3cc(ccc31)-c1csc(n1)CC(NC(=O)C1CC1C)C(=O)N1CCCC(N1)C(=O)OCC(C)(C)C2"
label_class = 1

[[record]]
compound = "NC1c2ccccc2OC12CCN(c1cnc3c(N4CCCc5ncccc54)n[nH]c3n1)CC2 (stereo unspecified) + CCn1c(-c2cccnc2C(C)OC)c2c3cc(ccc31)N1CCOC(CC(NC(=O)C(C(C)C)N(C)C(=O)C3(F)CCN(C(=O)C#CC(C)(C)N(C)C)CC3)C(=O)N3CCCC(N3)C(=O)OCC(C)(C)C2)C1"
label_class = 0

[[record]]
compound = "CC(C)NCC(C(=O)N1CCN(c2ncnc3c2C(C)CC3O)CC1)c1ccc(Cl)cc1 (stereo unspecified) + CCn1c(-c2cccnc2C(C)OC)c2c3cc(ccc31)N1CCOC(CC(NC(=O)C(C(C)C)N(C)C(=O)C3(F)CCN(C(=O)C#CC(C)(C)N(C)C)CC3)C(=O)N3CCCC(N3)C(=O)OCC(C)(C)C2)C1"
label_class = 0

[[record]]
compound = "CC(Nc1ccc2c(c1)OCCn1cc(N3C(=O)OCC3C(F)F)nc1-2)C(N)=O (stereo unspecified) + CCn1c(-c2cccnc2C(C)OC)c2c3cc(ccc31)N1CCOC(CC(NC(=O)C(C(C)C)N(C)C(=O)C3(F)CCN(C(=O)C#CC(C)(C)N(C)C)CC3)C(=O)N3CCCC(N3)C(=O)OCC(C)(C)C2)C1"
label_class = 0

